system: MS2 coat protein; test: apparent Kd, MS2 coat protein; higher = weaker binding; RNA-MaP array; FMN 200 µM where present; settings: ligand present: flavin mononucleotide; designed as: OFF switch for flavin mononucleotide
The entries below are paired with their reported apparent Kd.
Give your result in µM as a bare value.

Solved entries (count: 4):
{"residue.string": "CACCGUUACGUAGGAUAUAGUACAUGAGGAUCACCCAUGUAAUAAAUGAGAAUUUCGGAUGUAUGCUAGAAGGACGAAAUCGGC", "apparent Kd [µM]": 0.0491}
{"residue.string": "AAUAUAAGAGCUGGUACUCAAAGAACAUGAGGAUCACCCAUGUAGGAUAUCAGCACGAUAAGUGCUGAGAAGGACAUCCAGCUC", "apparent Kd [µM]": 0.0159}
{"residue.string": "UUUCAGCAAGGAUAUACGGGCUGUGCUUUUCAUUUCUUACAACAUGAGGAUCACCCAUGUAGAAGGUGCAUCUU", "apparent Kd [µM]": 0.111}
{"residue.string": "AAUAUAGAGCUGGUCUCAAAAUAAACAUGAGGAUCACCCAUGUAGGAUAUCAGCACGAUAAGUGCUGAGAAGGACAUCCAGCUC", "apparent Kd [µM]": 0.0184}

QUERY: Fill in: apparent Kd of UGCAUGUCAGGAUAUCGUGCAUACAACGAAAGUUCUAUGUGCGAGAAGGGACAUGAGGAUCACCCAUGUCUUCG is ___
RESULT: 0.0674

QUERY: Given GACUGACGAGGAUAUACAUGAGGAUCACCCAUGUAAGAUCAGCGACGAUAGUCGCAAUGUAGAAGGCGUCAGUC , state its recorded apparent Kd.
RESULT: 0.293

QUERY: Endpoint output: apparent Kd of GUCCUCUCUGAGGAUAUUAUCCGGUCCGAUUGAUAAGAAGGCAGUACAUGAGGAUCACCCAUGUGGGUUGUCUG . Value?
RESULT: 0.17

----------
tested on: MS2 coat protein; experiment: apparent Kd, MS2 coat protein; higher = weaker binding; RNA-MaP array; FMN 200 µM where present; settings: designed as: ON switch for flavin mononucleotide; no ligand
Please enter 1 (yes) where apparent Kd is greater than or equal to 90 nM, and 0 (no) where it is lower.

Study these solved cases before continuing.
{"residue.string": "AGUGUCAUCGAGAAGGCCUUGACAUGAGGAUCACCCAUGUUGUAACAUGGGAGGAUAUCGAUGAUACAGCUACGUUUCGUAGCA", "assigned.class": "1 (yes)"}
{"residue.string": "GGUACCAUCACAGGAUAUGCUUUUCUUUGGGAAGCAGAAGGGUGUAACAUGAGGAUCACCCAUGUGGUGCCAGGGCGUGAGCCC", "assigned.class": "1 (yes)"}
{"residue.string": "UGGUCAUGAUCAGGAUAUUAACAUGGGCUACAUUAAGAAGGGAUAGUGAGAUGCGAACUGAACGACAUGAGGAUCACCCAUGUA", "assigned.class": "0 (no)"}
{"residue.string": "AUGGAUAUCACAGGAUAUGCCAUGGAUACCAUGGCAGAAGGGUGAUCCAUCCUAUGUAAAUACAUGAGGAUCACCCAUGUGUCC", "assigned.class": "0 (no)"}

QUERY: Hi team, for AACUGAGCCCAAGGAUAUCCUCACUUCCACUACAUGAGGAUCACCCAUGUCAGAUCGUCUGUGUAGGAGAAGGUGGUGUACAUG , is the recorded apparent Kd at or above 90 nM?
RESULT: 1 (yes)

QUERY: Hi team, for ACACGACAUGAGGAUCACCCAUGUUUCCGAUUCACAGGAUAUGGGACAUCCGGAGGGUGACCAGAAGGGUGACUCG , is the recorded apparent Kd at or above 90 nM?
RESULT: 1 (yes)

----------
system: MS2 coat protein; assay: apparent Kd, MS2 coat protein; higher = weaker binding; RNA-MaP array; FMN 200 µM where present; conditions: designed as: OFF switch for flavin mononucleotide; no ligand
Each entry gets NOT MET if its apparent Kd stays under 20 nM, and MET if its apparent Kd is 20 nM or above.

Example results:
{"residue.string": "UCCUAACAUGAGGAUCACCCAUGUCAGGAUAUGAUACUAUGUACUUCGGUACAUAGUAUCAGAAGGGACAUCCU", "assigned.class": "NOT MET"}
{"residue.string": "AUGCAACAUGAGGAUCACCCAUGUGAGGAUAUCGUAUAAUACUGUUGAAAGAGUUAGACGAGAAGGCACACCGU", "assigned.class": "MET"}
{"residue.string": "CCAUCAGCGGGCGUAUCGGUUGGACAUGAGGAUCACCCAUGUAGAAGGACAGGAGUAUUUCGGCUGUAGGAUAUACAUUUGGUG", "assigned.class": "MET"}
{"residue.string": "AAUAAAUAGGAGGAUAUCGUAUCGGAAACGAUACGAGAAGGUCUAACAUGAGGAUCACCCAUGUUCCUCAAUAA", "assigned.class": "MET"}
{"residue.string": "AAUAGGCGAGGAUAUACAUGAGGAUCACCCAUGUAAGUAAGCCUGGCUGAAACUAAAUGUAGAAGGCGCAAUAA", "assigned.class": "NOT MET"}

Now for a further sequence.
QUERY: In plain terms: is recorded apparent Kd at least 20 nM for CUUUUGUGAGGAUAUCAGUAGUAAUUAAAUAAAAUUACUACUGAGAAGGCACAUGAGGAUCACCCAUGUUCCUC ?
RESULT: MET

----------
test system: MS2 coat protein; experiment: apparent Kd, MS2 coat protein; higher = weaker binding; RNA-MaP array; FMN 200 µM where present; settings: ligand present: flavin mononucleotide; designed as: OFF switch for flavin mononucleotide
value.type: apparent Kd (nM)
Write the number in nM without appending the unit.

Worked examples, 5 sequences total:
{"residue.string": "UAUGUGUGAGGAUAUGGUAAAGAUAAGAUGAUGAAAGAACUCCAGAAGGCACAUGAGGAUCACCCAUGUAGAUA", "system.tested": "MS2 coat protein", "apparent Kd [nM]": 45.6}
{"residue.string": "CAUUAAUUCAUUAUAGUAAUUAUACAGGAUAUGUUACAUGAGGAUCACCCAUGUAUUCUUGGUAAACAGAAGGGUAUUUCUAGU", "system.tested": "MS2 coat protein", "apparent Kd [nM]": 9.31}
{"residue.string": "CGUUAUUCAGGAUAUGGUGUGUUAUACAUGAGGAUCACCCAUGUAGAUCCUGGUUAGGCCUCAGAAGGGAAUGUUC", "system.tested": "MS2 coat protein", "apparent Kd [nM]": 145}
{"residue.string": "AUUACCAGAGGAUAUGCGAGGGUGUACCUCCCACAGCGAACACAUGAGGAUCACCCAUGUAGAAGGCUGAACAU", "system.tested": "MS2 coat protein", "apparent Kd [nM]": 33}
{"residue.string": "UUAAAUCAUGUAGGAUAUGCAUGGCGAAGCUACGCAGAAGGACAUGAGGAUCACCCAUGUUAUAGCGACCAAGUAAGGUUGCAA", "system.tested": "MS2 coat protein", "apparent Kd [nM]": 197}

QUERY: What value of apparent Kd has been reported for the following sequence? GGUGAGUGAGGAUAUCCAGGUCCUGACAUGAGGAUCACCCAUGUAUACGUCACGUGCGGAGGAGAAGGCACAAUAA
RESULT: 297

QUERY: What measured apparent Kd goes with GUCACUAGAGGAUAUACAAUGGUAUAUGAUCCUAGAGACAUACAUGAGGAUCACCCAUGUAGAAGGCUAGUAUU ?
RESULT: 43.5

QUERY: // returns reported apparent Kd for input GUCUUGUCAGGAUAUCUUACAUAACAAUCGUAGUUACAAUUGGAGAAGGGACAUGAGGAUCACCCAUGUUAGCG
RESULT: 36

----------
test system: MS2 coat protein; test: apparent Kd, MS2 coat protein; higher = weaker binding; RNA-MaP array; FMN 200 µM where present; details: designed as: OFF switch for flavin mononucleotide; no ligand
value.type: apparent Kd (nM)
Record the value in nM, omitting the unit from your answer.

Observe how each entry below is paired with its result.
{"residue.string": "CUGUUAUAUGAAGGAUAUACUUAACAUGAGGAUCACCCAUGUGGUGUUGUGAGUGAGUGAGUUUAGUAGAAGGUCAAUUCUUUU", "apparent Kd, nM": 207}
{"residue.string": "AUCAGCUCGUCAGGAUAUACGUCACUGCGUCACCAGUGUGGUAAGAUCACAUGAGGAUCACCCAUGUAGAAGGGACGAGCUGAU", "apparent Kd, nM": 15.4}
{"residue.string": "GUUAAGGUAGGAUAUACGAUAAUAUAGGGUAGAUAUAUAACACAUGAGGAUCACCCAUGUAGAAGGACCAAUUG", "apparent Kd, nM": 30.2}
{"residue.string": "GGCUAGUCAGGAUAUACGAACAUGUCAAAAGACGUGAAGGGACAUGAGGAUCACCCAUGUAGAAGGGACUAGCU", "apparent Kd, nM": 24.8}
{"residue.string": "GAUCCACAUGAGGAUCACCCAUGUGAGGAUAUGAUACUAUGUACUUCGGUACAUAGUAUCAGAAGGCAUAUGAA", "apparent Kd, nM": 42}
{"residue.string": "CUAUUACGAGGAUAUGAUUUAAAUAACAUGAGGAUCACCCAUGUUUUUACGUUAUUUUGUUUAGAAGGCGUAUUGU", "apparent Kd, nM": 52.9}

QUERY: # apparent Kd lookup, item AGAAAUUAGUGAGGAUAUGCAUAAUAUUUAGCUGCAGAAGGCACGGACCACAAGACAUGAGGAUCACCCAUGUGGUAUAUAGAU
RESULT: 24.9
